The origin of these recorded values is patent US20100069393A1.

# METHOD_NOTES: Cytotoxicity: viability of M17 cells
# CONDITION_CONTEXT: human, M17 neuroblastoma cells, Cytotoxicity (% viable at 1 and 10 uM), test compound 1 uM
VALUE_TYPE: viability at 1 uM (%)
The reply should be a number in %, with the unit left off.

Worked examples, 10 compounds total:
Give its viability at 1 uM value. Item: O=c1c2cccc(O)c2ncn1-c1cccnc1
106

Okay, and CC(C)c1cnc2c(O)cccn2c1=O ?
99.7

Okay, and COc1ccc(-n2cnc3c(O)cccc3c2=O)cn1 ?
97.8

Okay, and O=c1c2c(Cl)cc(Cl)c(O)c2ncn1Cc1ccn2ccnc2c1 ?
105

Okay, and CCCn1cnc2c(O)c(I)cc(Cl)c2c1=O ?
120

Okay, and O=c1c2ccc(I)c(O)c2ncn1CC1CC1 ?
111

Okay, and CN(C)Cc1nc2c(O)c(Cl)cc(Cl)c2c(=O)n1CC1CC1.Cl ?
94.4

Okay, and Br.CCN(CC)Cc1nc2c(O)c(Cl)cc(Cl)c2c(=O)[nH]1 ?
106

Okay, and O=c1c2c(Cl)cc(Cl)c(O)c2ncn1C1CC1 ?
105

Okay, and O=c1c2cccc(O)c2ncn1-c1ccc(F)cc1 ?
92.7

Next:
Give its viability at 1 uM value. Item: CCCCc1cnc2c(O)c(-c3cccnc3)ccn2c1=O
92.1

Okay, and O=c1c2c(Cl)cc(Cl)c(O)c2ncn1N1CCCCC1 ?
87.9

Okay, and O=c1c2cccc(O)c2ncn1CCc1ccccn1 ?
107

###

# METHOD_NOTES: Cytotoxicity: viability of M17 cells
# CONDITION_CONTEXT: human, M17 neuroblastoma cells, Cytotoxicity (% viable at 1 and 10 uM), test compound 1 uM
VALUE_TYPE: viability at 1 uM (%)
The reply should be a number in %, with the unit left off.

Worked examples, 6 compounds total:
Give its viability at 1 uM value. Item: OCCN1C=Nc2c(O)c(Cl)cc(Cl)c2C1
115

Okay, and O=c1c2ccc(I)c(O)c2ncn1CCNS(=O)(=O)c1ccc(F)cc1 ?
96.5

Okay, and CCc1cnc2c(O)cccn2c1=O ?
96.1

Okay, and CCC(C)Cn1cnc2c(O)cccc2c1=O (stereo not shown) ?
103

Okay, and CCN(CC)C(=O)Cn1cnc2c(O)cccc2c1=O ?
118

Okay, and CC(C)Cn1c(CN(C)C)nc2c(O)c(Cl)cc(Cl)c2c1=O ?
104

Next:
Give its viability at 1 uM value. Item: O=c1c2c(Cl)cc(Cl)c(O)c2ncn1Cc1nc2ccccc2[nH]1
102

Okay, and O=C1NC(=O)c2cc(-n3cnc4c(O)c(Cl)cc(Cl)c4c3=O)ccc21 ?
85.4

Okay, and CCN(CC)C(=O)Cn1cnc2c(O)c(Cl)cc(Cl)c2c1=O ?
122

Okay, and O=C1c2ccccc2C(=O)N1CCn1cnc2c(O)c(I)ccc2c1=O ?
127

Okay, and CNS(=O)(=O)Cc1ccc(-n2cnc3c(O)c(Cl)cc(Cl)c3c2=O)cc1 ?
93

Okay, and CCN(CC)CCn1cnc2c(O)c(I)ccc2c1=O ?
106

###

# METHOD_NOTES: In vivo toxicity, visual observations
# CONDITION_CONTEXT: 30 mg/kg, number of days
VALUE_TYPE: Toxicity at 30 mg/kg

Worked examples, 2 molecules total:
Give its Toxicity at 30 mg/kg value. Item: O=C(NCc1ccc(F)cc1)c1cnc2c(O)c(I)ccn2c1=O
7 days, 4/4 deaths

Okay, and O=c1c2c(Cl)cc(Cl)c(O)c2ncn1CC1CC1 ?
11 days, none

Next:
Give its Toxicity at 30 mg/kg value. Item: Br.CCN(CC)CCn1cnc2c(O)c(Cl)cc(Cl)c2c1=O
10 days, none

Okay, and CCCCc1cnc2c(O)cccn2c1=O ?
10 days, none

Okay, and Oc1c(N2CCOCC2)ncc2cccnc12 ?
10 days, mild toxic signs

Okay, and Br.CN(C)Cc1nc2c(O)c(Cl)cc(Cl)c2c(=O)n1C ?
10 days, 1 of 4 mild signs

Okay, and O=c1c2c(Cl)cc(Cl)c(O)c2ncn1Cc1cn2ccccc2n1 ?
10 days, none

Okay, and O=c1c2c(Cl)cc(Cl)c(O)c2ncn1N1CCCC1 ?
10 days, none

Okay, and O=c1c2c(Cl)cc(Cl)c(O)c2ncn1CCN1CCCC1 ?
14 days, 1 of 4 death
